Quick list: zone of inhibition at 60 µg/disc per entry.
Tested on: Mucor
Assay: Antifungal activity against Mucor at 60 ug/disc after 24 hrs by disc diffusion method
Format: functional
Conditions: read-out: IZ
Report the figure in mm without appending any unit label.

Could you share what zone of inhibition at 60 µg/disc was measured for N#Cc1c(N)nc2c(c1-c1ccccc1Cl)C(=O)CCC2 , tested on Mucor? 7

Please answer likewise for CC(=O)N(C(C)=O)c1nc2c(c(-c3ccc(C)cc3)c1C#N)C(=O)CCC2 7

Okay, next one:
Could you share what zone of inhibition at 60 µg/disc was measured for N#Cc1c(N)nc2c(c1-c1ccc(Cl)cc1)C(=O)CCC2 , tested on Mucor? 7

----------
Test system: Candida albicans
Experiment: Antifungal activity against Candida albicans 1 at 100 ug/disc after 24 hrs by disc diffusion method
Type: functional
Settings: read-out: IZ
Quick list: zone of inhibition at 100 µg/disc per entry.

Illustrative cases are given below, each with its answer.
Could you share what zone of inhibition at 100 µg/disc was measured for C[C@@H]1[C@H](O)[C@@H](C)/C=C/C=C/C=C/C=C/C=C/C=C/C=C/[C@H](O[C@@H]2O[C@H](C)[C@@H](O)[C@H](N)[C@@H]2O)C[C@@H]2O[C@](O)(C[C@@H](O)C[C@@H](O)[C@H](O)CC[C@@H](O)C[C@@H](O)CC(=O)O[C@H]1C)C[C@H](O)[C@H]2C(=O)O [AMPHOTERICIN B] , tested on Candida albicans? 12 mm

Please answer likewise for N#Cc1c(N)nc2c(c1-c1cccc(N)c1)C(=O)CCC2 6 mm

Please answer likewise for Cc1ccc(-c2c(C(N)=O)c(N)nc3c2C(=O)CCC3)cc1 4 mm

---
Could you share what zone of inhibition at 100 µg/disc was measured for CC(=O)N(C(C)=O)c1nc2c(c(-c3ccc(C)cc3)c1C#N)C(=O)CCC2 , tested on Candida albicans? 6 mm

Please answer likewise for CC(=O)Nc1nc2c(c(-c3cccc(N4C(=O)C=CC4=O)c3)c1C#N)C(=O)CCC2 7 mm

----------
Quick list: zone of inhibition at 40 µg/disc per entry.
System: Fusarium oxysporum
Assay: Antifungal activity against Fusarium oxysporum 1 at 40 ug/disc after 24 hrs by disc diffusion method
Format: functional
Conditions: read-out: IZ
Report the figure in mm without appending any unit label.

Requested read-out: zone of inhibition at 40 µg/disc. Entry: COc1cc(-c2c(C#N)c(N)nc3c2C(=O)CCC3)cc(OC)c1OC 2

Please answer likewise for C[C@@H]1C[C@@H]([C@H](O)CC2CC(=O)NC(=O)C2)C(=O)[C@@H](C)C1 [CYCLOHEXIMIDE] 3

---
Requested read-out: zone of inhibition at 40 µg/disc. Entry: N#Cc1c(N)nc2c(c1-c1cccc(NC(=O)CCN3CCOCC3)c1)C(=O)CCC2 2

Please answer likewise for N#Cc1c(N)nc2c(c1-c1cccc([N+](=O)[O-])c1)C(=O)CCC2 3

Please answer likewise for N#Cc1c(N)nc2c(c1-c1ccccc1Cl)C(=O)CCC2 2

Please answer likewise for C[C@@H]1[C@H](O)[C@@H](C)/C=C/C=C/C=C/C=C/C=C/C=C/C=C/[C@H](O[C@@H]2O[C@H](C)[C@@H](O)[C@H](N)[C@@H]2O)C[C@@H]2O[C@](O)(C[C@@H](O)C[C@@H](O)[C@H](O)CC[C@@H](O)C[C@@H](O)CC(=O)O[C@H]1C)C[C@H](O)[C@H]2C(=O)O 2

Please answer likewise for N#Cc1c(N)nc2c(c1-c1cccc(N3C(=O)C=CC3=O)c1)C(=O)CCC2 3

Please answer likewise for CC(=O)Nc1nc2c(c(-c3cccc(N4C(=O)C=CC4=O)c3)c1C#N)C(=O)CCC2 2

Please answer likewise for Cc1ccc(-c2c(C#N)c(N)nc3c2C(=O)CCC3)cc1 2

Please answer likewise for N#Cc1c(N)nc2c(c1-c1cccc(N)c1)C(=O)CCC2 2
